test: Pharmacokinetic study in rats; assay type: in vivo, SD rats; settings: Sprague-Dawley, rat, in vivo, po; SD rats, plasma; 1-b IG 5 mg/kg, analyte 1-b
Quantity name: MRT last (h)

>  <Compound>
c1cc2c(s1)[C@@H]1CNCCN1CC2 [Compound 1-b]

>  <Quantity name>
MRT last

>  <Observed measurement>
2.33

$$$$

====

assay: Pharmacokinetic study in dogs; settings: dog, in vivo, po; Beagle dogs, plasma, after intragastric L15 hydrochloride 2 mg/kg (as free base); label = analyte

>  <Chem smiles>
c1cc2c(s1)[C@@H]1CNCCN1CC2

>  <Readout unit>
nM

>  <Cmax>
22.3

$$$$

====

test: Pharmacokinetic study in rats; assay type: in vivo, SD rats; details: Sprague-Dawley, rat, in vivo, po; SD rats, plasma; 1-b IG 5 mg/kg, analyte 1-b
Quantity name: Tmax (min)

>  <Compound>
c1cc2c(s1)[C@@H]1CNCCN1CC2 [Compound 1-b]

>  <Quantity name>
Tmax

>  <Observed measurement>
25

$$$$

====

assay: Pharmacokinetic study in rats; assay type: in vivo, SD rats; settings: Sprague-Dawley, rat, in vivo, po; SD rats, plasma; 1-b IG 5 mg/kg, analyte 1-b
Quantity name: AUC(0-t)

>  <Chem smiles>
c1cc2c(s1)[C@@H]1CNCCN1CC2

>  <Quantity name>
AUC(0-t)

>  <Observed measurement>
9.95 µM·h

$$$$

====

Target: TAAR1 (Homo sapiens, UniProt Q96RJ0)
Construct: expressed in transfected cells; host or cells: CHO-K1 (cAMP Hunter TAAR1 Gs cell line)
Sequence (Q96RJ0 1-339): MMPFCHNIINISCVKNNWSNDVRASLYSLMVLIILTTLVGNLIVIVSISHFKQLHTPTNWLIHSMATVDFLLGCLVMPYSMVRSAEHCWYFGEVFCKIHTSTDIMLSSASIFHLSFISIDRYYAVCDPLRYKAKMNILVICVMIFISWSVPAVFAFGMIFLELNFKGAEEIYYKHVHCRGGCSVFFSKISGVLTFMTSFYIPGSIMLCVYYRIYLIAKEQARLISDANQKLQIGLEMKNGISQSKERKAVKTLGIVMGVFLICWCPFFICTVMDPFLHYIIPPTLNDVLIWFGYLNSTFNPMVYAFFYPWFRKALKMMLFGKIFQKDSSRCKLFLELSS
Experiment: In vitro TAAR1 functional activity (cAMP Hunter CHO-K1 TAAR1 Gs cell line, HitHunter cAMP assay)
Assay type: cell-based
Conditions: EC50, cAMP Hunter CHO-K1 TAAR1 Gs cell line, chemiluminescence cAMP readout

>  <Compound>
COc1ccc([C@H]2CNCCO2)s1 [Compound 12-b]

>  <Target under test>
TAAR1 (Homo sapiens, UniProt Q96RJ0)

>  <Censor symbol>
=

>  <EC50 / µM>
1.59

$$$$
>  <Compound>
Fc1csc(C2CNCCO2)c1 (centres unmarked) [Compound 8]

>  <Target under test>
TAAR1 (Homo sapiens, UniProt Q96RJ0)

>  <Censor symbol>
=

>  <EC50 / µM>
0.295

$$$$
>  <Compound>
FC(F)COc1ccsc1C1CNCCO1 (centres unmarked) [Compound 19]

>  <Target under test>
TAAR1 (Homo sapiens, UniProt Q96RJ0)

>  <Censor symbol>
>

>  <EC50 / µM>
10

$$$$
>  <Compound>
COc1ccc([C@@H]2CNCCO2)s1 [Compound 12-a]

>  <Target under test>
TAAR1 (Homo sapiens, UniProt Q96RJ0)

>  <Censor symbol>
>

>  <EC50 / µM>
10

$$$$
>  <Compound>
COc1csc([C@H]2CNCCO2)c1 [Compound 11-b]

>  <Target under test>
TAAR1 (Homo sapiens, UniProt Q96RJ0)

>  <Censor symbol>
=

>  <EC50 / µM>
2.16

$$$$
>  <Compound>
CC(C)Oc1ccsc1C1CNCCO1 (centres unmarked) [Compound 15]

>  <Target under test>
TAAR1 (Homo sapiens, UniProt Q96RJ0)

>  <Censor symbol>
>

>  <EC50 / µM>
10

$$$$
>  <Compound>
FCCOc1ccsc1C1CNCCO1 (centres unmarked) [Compound 60]

>  <Target under test>
TAAR1 (Homo sapiens, UniProt Q96RJ0)

>  <Censor symbol>
=

>  <EC50 / µM>
9.8

$$$$
>  <Compound>
COc1csc([C@@H]2CNCCO2)c1 [Compound 11-a]

>  <Target under test>
TAAR1 (Homo sapiens, UniProt Q96RJ0)

>  <Censor symbol>
>

>  <EC50 / µM>
10

$$$$

Taken from patent US20250382306A1.
